Test: Solubility of compound in PBS buffer at pH 2 at 200 uM incubated for 24 hrs in shaker by UPLC-DAD analysis
Type: physicochemical
recorded.endpoint: solubility at 24 h, 200 µM (µM)

Example entries begin here.
>  <smiles.entry>
CCOC(=O)N1CCCc2nc([C@@H](C)NC(=O)c3ccc(F)cc3)ccc21

>  <solubility at 24 h, 200 µM / µM>
183

$$$$
>  <smiles.entry>
C[C@@H](NC(=O)c1ccc(F)cc1)c1ccc2c(n1)CCCN2C(=O)OC1CC1

>  <solubility at 24 h, 200 µM / µM>
181

$$$$
>  <smiles.entry>
C[C@@H](NC(=O)c1ccc(F)cc1)c1ccc2c(n1)CCCN2C(=O)OC1COC1

>  <solubility at 24 h, 200 µM / µM>
176

$$$$
>  <smiles.entry>
C[C@@H](NC(=O)c1ccc(Cl)cc1)c1ccc2c(n1)CCCN2C(=O)c1cccc(Cl)c1

>  <solubility at 24 h, 200 µM / µM>
171

$$$$
>  <smiles.entry>
C[C@@H](NC(=O)c1ccc(F)cc1)c1ccc2c(n1)CCCN2c1ccncn1

>  <solubility at 24 h, 200 µM / µM>
157

$$$$

a. C[C@@H](NC(=O)c1ccc(F)cc1)c1ccc2c(n1)CCCN2C(=O)OCC(F)(F)F
b. C[C@@H](NC(=O)c1ccc(Cl)cc1)c1ccc2c(c1)OCCN2C(=O)c1cccc(Cl)c1
Q: Looking at recorded values for solubility at 24 h, 200 µM, does a or b come in lower? To answer, give the label that identifies your chosen option.
A: b
